Give measured LC50 at 5 days for each item. Keep answers brief.
assay: in vivo; assay type: in vivo; conditions: Amphibalanus amphitrite (barnacle, cypris larvae), in vivo; concentration at which dead individuals after 5 days account for 50% of all individuals; read-out: LC50 (toxicity to larvae)
Answers are plain numbers, in mg/L.

>>> quantitative_result("CC(C)(O)[C@H]1CC[C@](C)([C@@H](O)CC[C@](C)(O)[C@H]2CC[C@H]3O[C@@H]([C@]4(C)CC[C@@H](Br)C(C)(C)O4)CC[C@]3(C)O2)O1")
2.5
>>> quantitative_result("CC(C)=CCC[C@@](C)(O)[C@@H](O)CC[C@](C)(O)[C@H]1CC[C@H]2O[C@@H]([C@]3(C)CC[C@@H](Br)C(C)(C)O3)CC[C@]2(C)O1")
14.4

Below: the item to evaluate.
# query: LC50 at 5 days of entry CC/C(Br)=C\C=C\[C@@H](O)[C@H](Br)[C@@H]1O[C@@H](C=C=CBr)C[C@@H]1O
3.4

Source: patent US8258178B2
